These entries and their values trace back to the NIST ThermoML archive (doi:10.1021/acs.jced.5b00662).

settings: 333.15 K; 101.33 kPa; Liquid; Concentric cylinders viscometry
# viscosity annotations
A number alone suffices; assume mPa·s.

Some solved entries appear below for comparison.
{"compoundString": "COCCOCCO", "unitText": "mPa·s", "viscosity": 1.606}
{"compoundString": "COCCOCCOCCOCCOC", "unitText": "mPa·s", "viscosity": 1.677}

Request: So what does the record say about viscosity for OCCOCCO ?
Response: 7.57

Request: # get_value(readout='viscosity', item= CCOCCO )
Response: 0.962

Request: Which viscosity is listed for COCCOCCOCCOC ?
Response: 1.064

---

conditions: 368.15 K; 101.33 kPa; Liquid; Concentric cylinders viscometry
Given measured viscosity, output Yes if it is greater than or equal to 1 mPa·s and No if not.

Some entries whose results are on file:
{"compound": "CCOCCO [2-ethoxyethan-1-ol]", "groupLabel": "No"}
{"compound": "COCCOCCOC [2,5,8-trioxanonane]", "groupLabel": "No"}
{"compound": "COCCOCCOCCOCCOC [2,5,8,11,14-pentaoxapentadecane]", "groupLabel": "Yes"}

# input for lookup
Request: Given OCCOCCOCCO [triethylene glycol] , state whether its viscosity is at least 1 mPa·s.
Response: Yes
